- System: A204
- Procedure Details: relative viability vs DMSO control (72 h) (fraction); higher = more viable cells
- Cond: 3.333 µM
Binarize relative viability at 0.4; below is TRUE, at or above is FALSE.

In [3]: df
Out[3]:
                                   molecule  discrete_label
0  COc1cc2ncnc(Nc3ccc(F)c(Cl)c3)c2cc1OCCCN1CCOCC1 [Gefitinib]           FALSE
1  O=C(/C=C\n1cnc(-c2cc(C(F)(F)F)cc(C(F)(F)F)c2)n1)NNc1cnccn1 [Selinexor]            TRUE
2  Cc1cc(F)c(C(=O)Nc2cccc(-c3nncn3C(C)C)n2)cc1-n1cnc(C2CC2)c1 [Selonsertib]           FALSE
3  O=C1CCc2c(Oc3ccc4c(c3)[C@@H]3[C@H](O4)[C@H]3c3nc4cc(C(F)(F)F)ccc4[nH]3)ccnc2N1 [Lifirafenib]            TRUE
4  CNC(=O)c1c(C)oc2cc(Oc3ncnc4cc(OC)c(OC)cc34)ccc12 [Fruquintinib]            TRUE
5  Cc1[nH]c(/C=C2\C(=O)Nc3ccccc32)c(C)c1CCC(=O)O [Orantinib]           FALSE

###

- Tested on: SYO-1
- Procedure Details: relative viability vs DMSO control (72 h) (fraction); higher = more viable cells
- Cond: 0.00017 µM
Measured Metric: relative viability

>>> print(df.to_string())
                                   molecule  experimental_result
0  COc1cc2ncnc(Nc3ccc(F)c(Cl)c3)c2cc1OCCCN1CCOCC1 [Gefitinib]                 1.01
1  Cc1cc2c(F)c(Oc3ncnn4cc(OC[C@@H](C)OC(=O)[C@H](C)N)c(C)c34)ccc2[nH]1 [Brivanib_alaninate]                0.934
2  COc1cc(Nc2ncc3c(n2)-c2ccc(Cl)cc2C(c2c(F)cccc2OC)=NC3)ccc1C(=O)O [Alisertib]                0.934
3  O=C1CCc2c(Oc3ccc4c(c3)[C@@H]3[C@H](O4)[C@H]3c3nc4cc(C(F)(F)F)ccc4[nH]3)ccnc2N1 [Lifirafenib]                0.947

###

relative viability values for the compounds below.
- Test system: SW1353
- Procedure Details: relative viability vs DMSO control (72 h) (fraction); higher = more viable cells
- Cond: 0.00457 µM
Measured Metric: relative viability

                                   compound  experimental_result
0  CCOc1cc2ncc(C#N)c(Nc3ccc(OCc4ccccn4)c(Cl)c3)c2cc1NC(=O)/C=C/CN(C)C                0.934
1  COc1cc2ncnc(Nc3ccc(F)c(Cl)c3)c2cc1OCCCN1CCOCC1                 1.02
2  Cn1cnc2c(F)c(Nc3ccc(Br)cc3Cl)c(C(=O)NOCCO)cc21                0.892
3  O=C(/C=C\n1cnc(-c2cc(C(F)(F)F)cc(C(F)(F)F)c2)n1)NNc1cnccn1 [Selinexor]                 1.05

###

We begin with a simple list: items and their reported standardised AUC.
- System: KHOS-240S
- Procedure Details: standardised AUC of viability dose-response curve (72 h) (fraction (0-1)); higher = less growth inhibition (more resistant)
Measured Metric: standardised AUC

>>> print(df.to_string())
                                   compound   measured_metric  experimental_result
0  O=C1CCc2c(Oc3ccc4c(c3)[C@@H]3[C@H](O4)[C@H]3c3nc4cc(C(F)(F)F)ccc4[nH]3)ccnc2N1 [LIFIRAFENIB]  standardised AUC                0.938
1  CN(C)C(=O)c1cc2cnc(Nc3ccc(N4CCNCC4)cn3)nc2n1C1CCCC1 [RIBOCICLIB]  standardised AUC                0.961
2  O=S(=O)(c1cccc2c(O)nccc12)N1CCCNCC1 [HYDROXYFASUDIL]  standardised AUC                0.975
3  CCS(=O)(=O)N1CC(CC#N)(n2cc(-c3ncnc4[nH]ccc34)cn2)C1 [BARICITINIB]  standardised AUC                0.981
4  C[C@@H]1CN(C(=O)c2ccc(NC(=O)c3cc(O[C@H](C)c4c(Cl)ccc(F)c4Cl)c(N)nn3)cc2)C[C@H](C)N1 [ENSARTINIB]  standardised AUC                0.895
5  COc1cc(N2CCC(N3CCN(C)CC3)CC2)ccc1Nc1ncc(Cl)c(Nc2ccccc2P(C)(C)=O)n1 [BRIGATINIB]  standardised AUC                0.766
6  C=CC(=O)N1CCC(CNc2ncnc(N)c2-c2ccc(Oc3ccccc3)cc2)CC1 [EVOBRUTINIB]  standardised AUC                0.981
7  CN(C)C/C=C/C(=O)Nc1cc2c(Nc3ccc(F)c(Cl)c3)ncnc2cc1O[C@H]1CCOC1 [AFATINIB]  standardised AUC                0.846

###

# Lookup of reported relative viability keyed by entry
- Tested on: G401
- Procedure Details: relative viability vs DMSO control (72 h) (fraction); higher = more viable cells
- Cond: 0.00017 µM
Measured Metric: relative viability

                                   compound  experimental_result
0  CC(=O)c1c(C)c2cnc(Nc3ccc(N4CCNCC4)cn3)nc2n(C2CCCC2)c1=O [Palbociclib]                 1.04
1  CCS(=O)(=O)N1CC(CC#N)(n2cc(-c3ncnc4[nH]ccc34)cn2)C1 [Baricitinib]                0.955
2  C#Cc1cccc(Nc2ncnc3cc4c(cc23)OCCOCCOCCO4)c1 [Icotinib]                 1.04
3  COc1cc(Nc2ncc3c(n2)-c2ccc(Cl)cc2C(c2c(F)cccc2OC)=NC3)ccc1C(=O)O [Alisertib]                 1.01
4  O=S(=O)(c1cccc2c(O)nccc12)N1CCCNCC1 [Hydroxyfasudil]                 1.02

###

- Test system: G401
- Procedure Details: relative viability vs DMSO control (72 h) (fraction); higher = more viable cells
- Cond: 3.333 µM
Below is a list of entries, each paired with its recorded relative viability value.

Mol	relative viability
C#Cc1cccc(Nc2ncnc3cc4c(cc23)OCCOCCOCCO4)c1	1.03
COc1cc(Nc2ncc3c(n2)-c2ccc(Cl)cc2C(c2c(F)cccc2OC)=NC3)ccc1C(=O)O	0.637
CO[C@H]1C[C@@H]2CC[C@@H](C)[C@@](O)(O2)C(=O)C(=O)N2CCCC[C@H]2C(=O)O[C@H]([C@H](C)C[C@@H]2CC[C@@H](OC(=O)C(C)(CO)CO)[C@H](OC)C2)CC(=O)[C@H](C)/C=C(\C)[C@@H](O)[C@@H](OC)C(=O)[C@H](C)C[C@H](C)/C=C/C=C/C=C/1C	0.586

###

- Test system: RD-ES
- Procedure Details: relative viability vs DMSO control (72 h) (fraction); higher = more viable cells
- Cond: 0.3704 µM
The threshold is 0.7. Values of relative viability beneath it are tagged yes (1); values meeting or exceeding it are tagged no (0).

Compound	Measured Target	Discrete Label
CN(C)C(=O)c1cc2cnc(Nc3ccc(N4CCNCC4)cn3)nc2n1C1CCCC1	RD-ES	no (0)
COc1cc(Nc2ncc3c(n2)-c2ccc(Cl)cc2C(c2c(F)cccc2OC)=NC3)ccc1C(=O)O	RD-ES	yes (1)
Cc1cc2c(F)c(Oc3ncnn4cc(OC[C@@H](C)OC(=O)[C@H](C)N)c(C)c34)ccc2[nH]1 [Brivanib_alaninate]	RD-ES	no (0)
O=C(c1ccc(F)c(F)c1Nc1ccc(I)cc1F)N1CC(O)([C@@H]2CCCCN2)C1	RD-ES	no (0)
Cc1c2oc3c(C)ccc(C(=O)N[C@@H]4C(=O)N[C@H](C(C)C)C(=O)N5CCC[C@H]5C(=O)N(C)CC(=O)N(C)[C@@H](C(C)C)C(=O)O[C@@H]4C)c3nc-2c(C(=O)N[C@@H]2C(=O)N[C@H](C(C)C)C(=O)N3CCC[C@H]3C(=O)N(C)CC(=O)N(C)[C@@H](C(C)C)C(=O)O[C@@H]2C)c(N)c1=O	RD-ES	yes (1)
CS(=O)(=O)CCNCc1ccc(-c2ccc3ncnc(Nc4ccc(OCc5cccc(F)c5)c(Cl)c4)c3c2)o1	RD-ES	no (0)
COC(=O)c1ccc2c(c1)NC(=O)/C2=C(\Nc1ccc(N(C)C(=O)CN2CCN(C)CC2)cc1)c1ccccc1	RD-ES	no (0)
CCOc1cc2ncc(C#N)c(Nc3ccc(OCc4ccccn4)c(Cl)c3)c2cc1NC(=O)/C=C/CN(C)C	RD-ES	no (0)
